- target-of-assay: Carbonic anhydrase II (Sigma)
- protocol-description: fluorescence titration of the labeled peptide, PBS
Where no end group is shown, it is not given here.
readout-label: Kd
State the result as a value with its unit after it.

For this binder ( GQVGRQLAIIGDDINRYC(5‑iodoacetamidofluorescein)-NH2 (also called Bak BH3 peptide; Bak 72-94) [Bak peptide, fluorescein-labeled form with additional carboxy-terminal YC] ), measured Kd is 22 µM
